Tested on: primary human hepatic stellate cells (donor 1)
Protocol Notes: ACTA2 mRNA fold change vs DMSO (normalised to PSMB2); higher = more ACTA2 expression
Assay Context: 48 h
Readout Name: ACTA2 mRNA fold change

                                   molecule  assay_value
0  Cc1nc2ccc(-n3ncc(C(=O)c4cc5ccccc5[nH]4)c3N)cc2[nH]1 (33.3333 µM)        0.785
1  CN1CCN(Cc2ccc(-c3cnc4[nH]cc(-c5ccc6[nH]ccc6c5)c4c3)cc2)CC1 (6.66667 µM)        0.042
2  CC1(C)CC(=O)c2c(C(F)(F)F)nn(-c3ccc(C(N)=O)c(N[C@H]4CC[C@H](OC(=O)CN)CC4)c3)c2C1 (33.3333 µM)        0.967
